Reported Changes in Heart Rate values for a set of compounds
# Tested on: unanesthetized spontaneously hypertensive rats
# ASSAY_OVERVIEW: Heart rate determined simultaneously with blood pressure (sphygmometer connected to the pulse output)
# Type: in vivo, rat
# PROTOCOL_CONDITIONS: 6 hrs after administration; 10 mg/kg oral

>>> df
                                   molecule           test_readout       value
0  CN1C[C@H](Cn2cccn2)C[C@@H]2c3cccc4[nH]cc(c34)C[C@H]21  Changes in Heart Rate  -41 Δ/min.
1  CCCc1nccn1C[C@@H]1C[C@@H]2c3cccc4[nH]cc(c34)C[C@H]2N(C)C1  Changes in Heart Rate   -5 Δ/min.
2  CN1CC(=O)N(C[C@@H]2C[C@@H]3c4cccc5[nH]cc(c45)C[C@H]3N(C)C2)C1=O  Changes in Heart Rate   -4 Δ/min.

Changes in Heart Rate for Cc1nccn1C[C@@H]1C[C@@H]2c3cccc4[nH]cc(c34)C[C@H]2N(C)C1 is -32 Δ/min.

* * *

# Test system: unanesthetized spontaneously hypertensive rats
# ASSAY_OVERVIEW: Heart rate determined simultaneously with blood pressure (sphygmometer connected to the pulse output)
# Assay type: in vivo, rat
# PROTOCOL_CONDITIONS: 24 hrs after administration; 10 mg/kg oral
Counter-ions that a name gives are not always drawn.
TEST_READOUT: Changes in Heart Rate

Examples with their reported Changes in Heart Rate follow.
                                   compound       value
0  CN1C[C@H](Cn2cccn2)C[C@@H]2c3cccc4[nH]cc(c34)C[C@H]21   -7 Δ/min.
1  NNc1nncc2ccccc12 [Hydralazine Hydrochloride, reference compound]   44 Δ/min.
2  Cc1nccn1C[C@@H]1C[C@@H]2c3cccc4[nH]cc(c34)C[C@H]2N(C)C1   -3 Δ/min.
3  CN1C[C@H](CN2CCOC2=O)C[C@@H]2c3cccc4[nH]cc(c34)C[C@H]21  -23 Δ/min.
4  CN1C[C@H](Cn2cncn2)C[C@@H]2c3cccc4[nH]cc(c34)C[C@H]21  -10 Δ/min.

GET /values?item= CN1C[C@H](Cn2ccnc2)C[C@@H]2c3cccc4[nH]cc(c34)C[C@H]21 &system= unanesthetized spontaneously hypertensive rats returns Changes in Heart Rate: -44 Δ/min.

GET /values?item= CN1CC(=O)N(C[C@@H]2C[C@@H]3c4cccc5[nH]cc(c45)C[C@H]3N(C)C2)C1=O &system= unanesthetized spontaneously hypertensive rats returns Changes in Heart Rate: 1 Δ/min.

* * *

Reported Changes in Heart Rate values for a set of compounds
# Tested on: unanesthetized spontaneously hypertensive rats
# ASSAY_OVERVIEW: Heart rate determined simultaneously with blood pressure (sphygmometer connected to the pulse output)
# Type: in vivo, rat
# PROTOCOL_CONDITIONS: 2 hrs after administration; 10 mg/kg oral
Structures can show the parent of a compound that is named as a salt.

Examples with their reported Changes in Heart Rate follow.
>>> df
                                   compound           test_readout       value
0  CCOC(=O)c1ncn(C[C@@H]2C[C@@H]3c4cccc5[nH]cc(c45)C[C@H]3N(C)C2)c1C [Example 15B]  Changes in Heart Rate    5 Δ/min.
1  CCc1nccn1C[C@@H]1C[C@@H]2c3cccc4[nH]cc(c34)C[C@H]2N(C)C1 [Example 10]  Changes in Heart Rate  -15 Δ/min.
2  CCCc1nccn1C[C@@H]1C[C@@H]2c3cccc4[nH]cc(c34)C[C@H]2N(C)C1 [Example 12]  Changes in Heart Rate   -7 Δ/min.
3  CN1C[C@H](CN2CCOC2=O)C[C@@H]2c3cccc4[nH]cc(c34)C[C@H]21 [Example 2]  Changes in Heart Rate  -74 Δ/min.

GET /values?item= CN1C[C@H](Cn2ccnc2)C[C@@H]2c3cccc4[nH]cc(c34)C[C@H]21 [Example 1, 1-(6-Methylergolin-8β-ylmethyl)imidazole] &system= unanesthetized spontaneously hypertensive rats returns Changes in Heart Rate: -56 Δ/min.

GET /values?item= NNc1nncc2ccccc12 [Hydralazine Hydrochloride, reference compound] &system= unanesthetized spontaneously hypertensive rats returns Changes in Heart Rate: 66 Δ/min.

GET /values?item= CN1C[C@H](Cn2cccn2)C[C@@H]2c3cccc4[nH]cc(c34)C[C@H]21 [Example 4, 1-(6-Methylergolin-8β-ylmethyl)pyrazole] &system= unanesthetized spontaneously hypertensive rats returns Changes in Heart Rate: -38 Δ/min.
